System: Ras-CVLS processing in COS monkey kidney cells
Assay: Cell-based assay: Ras-CVLS processing in transfected COS cells (immunoblot)
Details: Primates; inhibition of Ras-CVLS processing in Ras-transfected COS cells
pIC50: −log10 of the molar value.
Classify as follows. Reported pIC50 greater than or equal to 5: 1.0. Reported pIC50 below: 0.0.

COMPOUND	TARGET	ASSIGNED_LABEL
O=C(Oc1cccnc1)N1CCN([C@H]2c3ccc(Cl)cc3CCc3cccnc32)CC1	Ras-CVLS processing in COS monkey kidney cells	1.0
O=C(Oc1ccccc1)N1CCC(=C2c3ccc(Cl)cc3CCc3cccnc32)CC1	Ras-CVLS processing in COS monkey kidney cells	1.0
O=C(Oc1cccnc1)N1CCN(C2c3ccc(Cl)cc3CCc3cccnc32)CC1 (stereo not drawn)	Ras-CVLS processing in COS monkey kidney cells	1.0
CCOC(=O)N1CCN(C2c3ccc(Cl)cc3CCc3cccnc32)CC1 (stereo not drawn)	Ras-CVLS processing in COS monkey kidney cells	0.0
CCSC(=O)N1CCC(=C2c3ccc(Cl)cc3CCc3cccnc32)CC1	Ras-CVLS processing in COS monkey kidney cells	0.0
O=C(Oc1ccccc1)N1CCN(C2c3ccc(Cl)cc3CCc3cccnc32)CC1 (stereo not drawn)	Ras-CVLS processing in COS monkey kidney cells	1.0

Lab note: next compound to report on.
Problem: # bool: pIC50 of CCOC(=O)N1CCC(C2c3ccc(Cl)cc3CCc3cccnc32)CC1 (stereo not drawn) >= 5
Solution: 0.0
